# inhibition listing for each entry below
Test: inhibitors of TNFa-induced NFkB p65 translocation, primary screen, imaging, HUVEC, MLSMR starter and 10KST1 sets (AID 438);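 further: compound added about 3h40 before a 20 min TNFalpha stimulation; signal is the nuclear over cytoplasmic p65 intensity ratio per well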
Details: HUVEC TNFa-induced p65 nuclear translocation; at 2 µM, hits give high values, 0% TNFa-plus-vehicle, 100% no-TNFa wells
observation.type: inhibition (%)

compound=COc1ccc(N/C=C(\C#N)c2nc3ccccc3n2C)c(OC)c1 observed_measurement=-0.5
compound=Cc1c(OCc2ccccc2)c(=O)ccn1Cc1ccccc1 observed_measurement=-7.9
compound="CCCOC(=O)CSC1=C(C#N)C(c2ccccc2OC)C(C#N)C(=O)N1 (stereo unspecified)" observed_measurement=-3.9
compound="CCN(CC)C(=O)CSC1=C(C#N)C(c2ccco2)C(C(=O)OCCOC)=C(C)N1 (stereo unspecified)" observed_measurement=-8.6
compound=COc1cccc(-c2nc(N3CCCCC3)c3ccccc3n2)c1O observed_measurement=1.2
compound=CC1(C)Cc2c(C#N)c(NCCN3CCOCC3)nc(-c3ccco3)c2CO1 observed_measurement=-8.4
compound=CC(C)Cc1nc(N2CCCCC2)c(C#N)c2c1CCC2 observed_measurement=-0.1
compound="Oc1ccc2c(c1)C1CCCC1(N1CCOCC1)O2 (stereo unspecified)" observed_measurement=0.7
compound=CCCc1cc(-n2ccnc2C)n2c(nc3ccccc32)c1C#N observed_measurement=-42.1
compound=O=C1CCC(=O)N1c1nc2nc(-c3ccccc3)cc(-c3ccccc3)n2n1 observed_measurement=-6.9
compound=Oc1c(C=Nc2cccnc2)sc2ccccc12 observed_measurement=-14.4
